assay: Toxicity liver stage against HepG2, at 10uM; assay type: cell-based; design: test concentration 10 uM, cell line HepG2-A16-CD81EGFP; conditions: human, HepG2-A16-CD81EGFP cells; read-out: INHIBITION
Give cytotoxicity at 10 µM for every item shown.
The reply should be a number in %, with the unit left off.

Query :: For the compound `O=C(CN1CCN(CCO)CC1)NCCc1c(F)cccc1F` , what cytotoxicity at 10 µM is on record?
Result :: -9.83

Query :: Same for O=C(NCc1ccccn1)NC1CCOc2ccccc21 (stereo not drawn)
Result :: -8.99

Query :: Same for Cn1cc(CNC2CCc3ncnn3C2)c(-c2cccnc2)n1 (stereo not drawn)
Result :: -5.92

Query :: Same for CC1CCCN(c2nccn3c(=O)[nH]nc23)C1 (stereo not drawn)
Result :: 12.1

Query :: Same for CC(=O)NCc1ccc(C(=O)N2CCCC2c2cnn(C)c2)cc1 (stereo not drawn)
Result :: -13.5

Query :: Same for `Cc1cc(=O)[nH]c(=O)n1Cc1ccccc1`
Result :: -42.6

Query :: Same for `c1cnc2c(c1)nc1n2[C@@H](CNCc2nccs2)COC1`
Result :: -2.66

Query :: Same for CCC(C)Oc1ccccc1Cn1cc2[nH]cccc-2c1=O (stereo not drawn)
Result :: -0.0261

Query :: Same for `Clc1ccc(-c2nnc([C@H]3CCN(C4CCCCC4)C3)o2)cc1`
Result :: -120

Query :: Same for `O=C(NS(=O)(=O)c1ccccc1)c1ccccc1F`
Result :: 11.4

Query :: Same for `O=C(COc1ccccc1)NCC1CCN(Cc2ccsc2)CC1`
Result :: -4.59

Query :: Same for `CCCc1nc(N2CC[C@@H](c3ccc4c(c3)OCO4)[C@H](O)C2)no1`
Result :: -9.87

Query :: Same for Cc1ncsc1C(=O)NCC1SCCc2ccccc21 (stereo not drawn)
Result :: -8.21

Query :: Same for CCS(=O)(=O)NCC1Cn2nnc(-c3cccc(C)c3)c2CO1 (stereo not drawn)
Result :: -120

Query :: Same for Fc1ccccc1OCCc1cc(C2CNCCO2)n[nH]1 (stereo not drawn)
Result :: -2.16

Query :: Same for `COC1CCN(C(=O)Cn2ccc3ccccc32)CC1`
Result :: -12.7

Query :: Same for O=C(CCCn1nnc(-c2ccc(F)cc2)n1)N1CCOCC(CO)C1 (stereo not drawn)
Result :: 16.2

Query :: Same for CCC1(O)CCCN(c2ncnc3c2c(C)nn3C)C1 (stereo not drawn)
Result :: 2.14

----------
assay: Toxicity liver stage against HepG2, at 10uM; assay type: cell-based; set-up: test concentration 10 uM, cell line HepG2-A16-CD81EGFP; settings: human, HepG2-A16-CD81EGFP cells; read-out: INHIBITION
Property label: cytotoxicity at 10 µM
Express your answer as a number followed by its unit.

Query :: For the compound `Cn1cc(N2CC3(CCN(CC4CC4)CC3)OCC2=O)cn1` , what cytotoxicity at 10 µM is on record?
Result :: -6.86%

Query :: Same for `Cn1cnc2c1CCN(Cc1csc(-c3ccccc3F)n1)C2`
Result :: -4.25%

Query :: Same for CC(NC(=O)c1ccnn1C)c1ccc(OCC2CC2)c(F)c1 (stereo unspecified)
Result :: 48.8%

Query :: Same for CN1CC(=O)N(c2ccsc2)CC12CCN(C(=O)CC1CCCC1)C2 (stereo unspecified)
Result :: -77.3%

Query :: Same for `CN(C)c1ncc(-c2ccncc2)c(CCNC(=O)C2CC2)n1`
Result :: 0.05%

Query :: Same for `Cc1ncsc1C(=O)NCCN1CCCCCC1=O`
Result :: 12.1%

Query :: Same for CC1c2ccsc2CCN1Cc1cc2c(cc1O)OCO2 (stereo unspecified)
Result :: 11.7%

Query :: Same for Cc1noc(C)c1-c1cc(CC2CCN(C(=O)c3cc[nH]n3)C2)ncn1 (stereo unspecified)
Result :: -13.4%

Query :: Same for `CS(=O)(=O)NCCCNc1ccc(C(F)(F)F)cc1C#N`
Result :: -2.18%

Query :: Same for CN(C)C(=O)N1CCCC(C(=O)N(C)CCCc2cnn(C)c2)C1 (stereo unspecified)
Result :: -0.645%

Query :: Same for `Cn1ccnc1SCCNC1CCN(c2nc3ccccc3s2)CC1`
Result :: 2.05%

Query :: Same for `CCn1ccnc1CN(C)Cc1nc(CCC(C)C)no1`
Result :: 2.89%

Query :: Same for `Cc1ccc(N2C[C@H]3OCC[C@H]3[C@H](C(=O)NCc3ccco3)C2)nn1`
Result :: -67.4%

Query :: Same for `NC1(CNC(=O)c2cc3ccccc3[nH]2)CCCC1`
Result :: 15.5%

Query :: Same for `Nc1ncc(C(=O)N2CCN(c3nccs3)CC2)cc1Cl`
Result :: -3.78%

Query :: Same for CCN1CC(COC(=O)c2cccc(Br)c2)CC1=O (stereo unspecified)
Result :: 4.91%

Query :: Same for CC(C)(C)S(=O)(=O)CCNC1CSCCc2ccccc21 (stereo unspecified)
Result :: -2.35%

Query :: Same for `O=C(NCCOc1ccc(Cl)cn1)Nc1nccs1`
Result :: 11.3%

Query :: Same for Cc1cccc2c(=O)n(C(C)Cc3cccnc3)cnc12 (stereo unspecified)
Result :: -13.5%

Query :: Same for `Cc1cccc(CN2CCC3(CCC(CC(=O)N(C)C)CC3)CC2)n1`
Result :: -113%

Query :: Same for CCC1CN(C(=O)c2cccc(OCc3cscn3)c2)CCO1 (stereo unspecified)
Result :: -7.51%

Query :: Same for Clc1cccc(OCCCN2CCOC(Cn3cncn3)C2)c1 (stereo unspecified)
Result :: -3.78%

Query :: Same for Cc1ccc(NC(=O)NC(C)Cn2cccn2)cc1 (stereo unspecified)
Result :: -0.577%

Query :: Same for `CC(C)n1cnnc1CN(C)Cc1ccoc1`
Result :: 3.15%

Query :: Same for `c1csc(CCNc2nc(-c3ccncc3)nc3c2CCNCC3)c1`
Result :: -165%

Query :: Same for N#Cc1ccc(F)c(CN2CCCC2Cn2cncn2)c1 (stereo unspecified)
Result :: 8.21%

Query :: Same for `Cc1csc2ncc(-c3ccnc(N4CCC[C@H](C(N)=O)C4)n3)c(=O)n12`
Result :: -13.3%

Query :: Same for Cc1ncc2c(n1)CCN(C(C(N)=O)c1ccccc1)C2 (stereo unspecified)
Result :: -2.62%

Query :: Same for `Cc1oc(-c2ccco2)nc1CN1CCc2cncnc2C1`
Result :: 2.44%

Query :: Same for COc1ccc(Br)c(C(=O)N2CCCC(c3nc(C)no3)C2)c1 (stereo unspecified)
Result :: 7.08%

Query :: Same for Cc1noc(C)c1-c1cncc(C2CCCN2Cc2c[nH]cn2)n1 (stereo unspecified)
Result :: -12.4%

Query :: Same for COc1cccc(CCC2CCCCN2)c1 (stereo unspecified)
Result :: -1.73%

Query :: Same for `CN(Cc1nnc(C2CC2)n1C)S(=O)(=O)c1ccc(F)c(C#N)c1`
Result :: 18.4%

Query :: Same for `COCC(=O)N1CCc2c(CNS(C)(=O)=O)n[nH]c2C1`
Result :: 4.32%

Query :: Same for CCC(CO)NCc1ccc(-c2ccccc2)o1 (stereo unspecified)
Result :: 4.42%

Query :: Same for `NC(=O)c1cccc2nc([C@H]3CCN(Cc4ccccc4F)C3)[nH]c12`
Result :: 20.8%
